Provenance of the data: patent US9618524B2

# target_or_test_system: T1, alpha-synuclein plaque particles (Homo sapiens, UniProt P37840)
# T1 construct: 140 amino acids polypeptide
# experimental_details: Mass spectroscopy proteomics, semi-quantitative binding affinity of serum proteins (plaqueproteome, Table 2)
# test_conditions: higher number = stronger affinity
observation_type: Semi-quantitative analysis of proteins binding to different plaque particles: Synuclein
// return just the number, without any unit appended

[
  {
    "molecule": "Ig lambda chain V-III region (protein) SELTQDPAVSVALGQTVRITCQGDSLRSYYASWYQQKPGQAPVLVIYGKNNRPSGIPDRFSGSSSGNTASLTITGAQAEDEADYYCNSRDSS",
    "observed_result": 2
  }
]

Request: Quick one: Semi-quantitative analysis of proteins binding to different plaque particles: Synuclein of Complement factor H-related protein 1 (protein) EATFCDFPKINHGILYDEEKYKPFSQVPTGEVFYYSCEYNFVSPSKSFWTRITCTEEGWSPTPKCLRLCFFPFVENGHSESSGQTHLEGDTVQIICNTGYRLQNNENNISCVERGWSTPPKCRSTDTSCVNPPTVQNAHILSRQMSKYPSGERVRYECRSPYEMFGDEEVMCLNGNWTEPPQCKDSTGKCGPPPPIDNGDITSFPLSVYAPASSVEYQCQNLYQLEGNKRITCRNGQWSEPPKCLHPCVISREIMENYNIALRWTAKQKLYLRTGESAEFVCKRGYRLSSRSHTLRTTCWDGKLEYPTCAKR ?
Response: 0
